Below, each entry is listed alongside its reported protein stability index.
B1: INTS3 (parent)
chain: KKREFRFHPIKETVVEEPVDITPY

# Variants of: B1
# Assay Protocol: protein stability index of a GFP-peptide fusion (GPS, HEK-293T) (PSI 1-6); higher = more stable;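 further: lentivirally expressed fusions sorted by FACS into six bins by GFP to DsRed ratio, PSI derived from sequencing read proportions per bin multiplied by bin number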
# Stated Conditions: c terminus: a fixed tail appended
The answer should be a number; do not append a unit.

Examples with their reported protein stability index follow.
KKREKRFHPIKETVVEEPVDITPY : 4.75
KKREFRFHPIKETPVEEPVDITPY : 1.64
KKHEFRFHPIKETVVEEPVDITPY : 2.14

Data request: What does the data say about its protein stability index? Entry: KKREFRFHPIKETVVEEPVDITEY
Data returned: 3.24

Data request: Try KKREFRFHPIKETVVEEPVMITPY next.
Data returned: 1.96

Data request: Please give the result for KKREFRFHPIKHTVVEEPVDITPY too.
Data returned: 2.17
